Recorded values, source the Deep4Chem optical property database.

# run description: solvent given as SMILES
# run conditions: in C1CCCCC1
I'd be grateful if you could share measured emission maximum for these entries.
One number for each entry, in nm.

These solved cases illustrate the format of a correct answer.
COC(=O)c1nc(-c2cccc3ccccc23)oc1C: 340
CCCCCCCC1=C(C)C(=O)n2c1cc1[nH]c(C(=O)OC)c(C)c1c2=O: 448
COc1cccc(OC)c1-c1c2ccccc2c(-c2c(OC)cccc2OC)c2ccccc12: 425
O=S(=O)(c1ccc(-c2ccc3c(c2)c2ccccc2n3-c2ccccc2)cc1)c1ccc(-c2ccc3c(c2)c2ccccc2n3-c2ccccc2)cc1: 365.07
CC(C)CCCCN1CCc2c1ccc1c3c(ccc21)C(=O)CCC3: 433
F[B-]1(F)n2ccnc2-c2cccc[n+]21: 338

Please go through the list and note emission maximum for each compound.
1. CSC1=C2C=C(c3cc4n(c3)[B-](F)(F)[N+]3=CC=CC3=C4c3c(C)cc(C)cc3C)C(C)=[N+]2[B-](F)(F)n2c(C)ccc21
2. CCC1(CC)c2cc(N(C)C)ccc2-c2ccc(C(F)(F)F)cc21
3. C[Si](C)(c1c2ccccc2cc2ccccc12)[Si](C)(C)c1c2ccccc2cc2ccccc12
4. F[B-]1(F)n2c(nc(-c3ccccc3)c2-c2ccccc2)-c2cccc[n+]21

1. 652
2. 360
3. 425
4. 517

* * *

# run description: solvent given as SMILES
# run conditions: in CCO
Values of emission maximum strictly less than 500 nm map to T, and values of at least 500 nm map to F.

Consider the following illustrative entries.
COc1ccc(-c2csc(-c3ccncc3)n2)cc1: T
CC[N+](CC)=c1ccc2c(-c3ccccc3C(=O)O)c3c(=O)oc4c5c6c(cc4c3oc-2c1)CCCN6CCC5: F
Oc1ccc(-c2ccco2)cc1-c1nc2ccccc2s1: T

# strict comparison: is reported emission maximum < 500 nm? input = `CCOC(=O)c1cc(C(=O)OCC)c2cc(OC)ccc2n1` T

A record lists `Cc1ccc(C2=C3C=C(I)C(I)=[N+]3[B-](F)(F)n3c2cc(I)c3I)cc1` . Is its emission maximum below 500 nm? F

For `CCN(CC)c1ccc2cc(C#N)/c(=N\C(=O)c3ccccc3)oc2c1` , is the recorded emission maximum below the cut-off of 500 nm? T

Dear reviewer, please state whether `CCOC(=O)c1cc(C(=O)OCC)c2cccc(O)c2n1` has emission maximum strictly beneath 500 nm. F

Regarding `CCC1=C(C)C2=C(C)c3cc(I)cn3[B-](F)(F)[N+]2=C1C` , kindly confirm whether its emission maximum is beneath 500 nm. F

Item `CN(C)c1ccc(-c2ccc3n2[B-](F)(F)[N+]2=C(c4ccccc4)C=CC2=C3C(F)(F)F)cc1` : emission maximum beneath 500 nm, strictly? F

* * *

# run description: solvent given as SMILES
# run conditions: in C1CCOC1
measurement name: emission maximum (nm)
Answers are plain numbers, in nm.

Past entries and their recorded results:
c1ccc(N(c2ccccc2)c2ccc3c4cccc5c(N(c6ccccc6)c6ccccc6)ccc(c6cccc2c63)c54)cc1: 545
COc1ccc(-c2cnc3nn4ccccc4c3c2)cc1: 423
COc1ccc2c(CC(=O)NN)coc2c1: 381
CC(C)(C)c1ccc2c(c1)c1cc(C(C)(C)C)cc3c1n2B1c2c-3cccc2-c2cc(C(C)(C)C)cc3c4cc(C(C)(C)C)ccc4n1c23: 384

Consider the following items and state reported emission maximum for each.
1. CN(C)c1ccc(/C=C2\CC/C(=C\c3ccc(N(C)C)cc3)C2=O)cc1
2. F[B-]1(F)n2c(/C=C/c3ccc(C(=C(c4ccccc4)c4ccccc4)c4ccccc4)cc3)ccc2C(c2ccc(C(=C(c3ccccc3)c3ccccc3)c3ccccc3)cc2)=C2C=CC(/C=C/c3ccc(C(=C(c4ccccc4)c4ccccc4)c4ccccc4)cc3)=[N+]21
3. CCn1c2ccccc2c2cc(C#Cc3cc(C#Cc4ccc5c(c4)c4ccccc4n5CC)ncn3)ccc21
4. CCCCCCc1ccc2c3c(ccc2c1)O[B-](c1ccccc1)(c1ccccc1)[N+](c1ccc([N+]2=Cc4c(ccc5cc(CCCCCC)ccc45)O[B-]2(c2ccccc2)c2ccccc2)cc1)=C3
5. COc1cc2c(cc1-c1ccncc1)Cc1c3c(c4c(c1-2)-c1cc(OC)c(-c2ccncc2)cc1C4)C(=O)N(CCC(C)C)C3=O
6. COc1cc(OC)cc(C2=C3C(C)=C(I)C(C)=[N+]3[B-](F)(F)n3c(/C=C/c4c[nH]c5ccccc45)c(I)c(C)c32)c1
7. Cn1c(=O)c(/N=N/c2cc(S(=O)(=O)O)ccc2S(=O)(=O)O)c(O)c2ccccc21

1. 529
2. 685
3. 451
4. 568
5. 456
6. 668
7. 498

Go through the items and report each one's emission maximum.
1. CCCCCC(CC)C1(C(CC)CCCCC)c2ccccc2-c2ccc(C#Cc3cc(C#Cc4ccc5c(c4)C(C(CC)CCCCC)(C(CC)CCCCC)c4ccccc4-5)c4ccc5c(C#Cc6ccc7c(c6)C(C(CC)CCCCC)(C(CC)CCCCC)c6ccccc6-7)cc(C#Cc6ccc7c(c6)C(C(CC)CCCCC)(C(CC)CCCCC)c6ccccc6-7)c6ccc3c4c65)cc21 (centres undefined)
2. c1ccc(N(c2ccccc2)c2ccc3c(ccc4nc5ccc6cc(N(c7ccccc7)c7ccccc7)ccc6c5nc43)c2)cc1
3. F[B-]1(F)n2c(nc(Br)c2Br)-c2cccc[n+]21

1. 513
2. 552
3. 484

* * *

# run description: solvent given as SMILES
# run conditions: in CC#N
Kindly apply the following: label 1 if emission maximum is less than 500 nm, label 0 in every other case.

Below 500 nm on emission maximum? Entry `CCOC(=O)c1c2c3c(ccc([N+](=O)[O-])c3c3cc4c(cc13)[Si](C)(C)O[Si]4(C)C)N(C)C2=O` label 1

Record `CC(C)(C)c1ccc2c(c1)c1cc(C(C)(C)C)ccc1n2-c1ccccc1-c1nc(-c2ccccc2P(=O)(c2ccccc2)c2ccccc2)nc(-c2ccccc2P(=O)(c2ccccc2)c2ccccc2)n1` : is its emission maximum strictly below 500 nm? label 0

Here's an entry: `O=c1c2cc(F)ccc2nc2n1[B-](F)(F)[n+]1ccccc1-2` . Is its emission maximum below 500 nm? label 1

Does this compound meet the criterion emission maximum < 500 nm? `COc1ccc(-c2cc3ccc4cc(-c5ccc(OC)cc5)cc5ccc(c2)c3c45)cc1` label 1

Does this compound meet the criterion emission maximum < 500 nm? `CCc1c(C)c2n(c1C)[B-](F)(F)[N+]1=C(NCc3ccc(OC)cc3)C=CC1=C2C` label 0

Is it true that emission maximum reported for `Cc1cc(O)c(C(=O)/C=C/c2ccccc2[N+](=O)[O-])c(=O)o1` is less than 500 nm? label 1

* * *

Consider the following compounds; for each one, report its emission maximum.
# run description: solvent given as SMILES
# run conditions: in CN(C)C=O
One number for each entry, in nm.

Known results for compounds:
CCN(CC)c1ccc2cc(-c3ccc(S(C)(=O)=O)cc3)oc(=O)c2c1: 499
O=C(O)COc1ccc2[nH]c3c(c2c1)CCCC3=O: 430

Quick one: give me emission maximum for each item below, same order please.
1. NS(=O)(=O)c1ccc(N2N=C(c3ccc(O)cc3)CC2c2ccc([N+](=O)[O-])cc2)cc1 (stereo not given)
2. c1ccc(-c2csc(-c3ccncc3)n2)cc1
3. CC[N+]1(CC)CN2C(C)=CC(C)=C(C(=O)O)C2=N1
4. c1ccc(-c2nc3ccccc3nc2-c2ccccc2)cc1
5. CSc1cc(-c2cc3cc4c5c(c3oc2=O)CCCN5CCC4)oc(=O)c1C#N

1. 422
2. 402
3. 449
4. 403
5. 612

* * *

# run description: solvent given as SMILES
# run conditions: in ClCCl
Exercise: state measured emission maximum for each of the compounds provided.
Numbers only, in nm.

Worked set:
CCC1(CC)c2cc(N(C)C)ccc2-c2ccc(C(F)(F)F)cc21: 387
CCN(CC)c1ccc2cc(C#N)/c(=N\C(=O)c3ccccc3)oc2c1: 460
COCCOCCOCCOCC(COCCOCCOCCOC)Oc1cc(/C=C/c2ccc(/C=C(\C#N)C(=O)c3ccccc3)cc2)c(OC(COCCOCCOCCOC)COCCOCCOCCOC)cc1/C=C/c1ccc(/C=C(\C#N)C(=O)c2ccccc2)cc1: 621

Record emission maximum per entry; entries follow.
1. COc1ccc(N(c2ccc(OC)cc2)c2ccc3ccc4c(B(c5c(C)cc(C)cc5C)c5c(C)cc(C)cc5C)ccc5ccc2c3c54)cc1
2. CCn1c2ccccc2c2cc(-c3cc(-c4ccc5c(c4)c4ccccc4n5CC)nc(-c4ccc(C#N)cc4)n3)ccc21
3. CC(C)(C)c1ccc(-n2c(-c3ccc(-c4ccc(-c5c(-c6ccccc6)nc6ccccn56)cc4)cc3)nc3c4ccccc4c4ccccc4c32)cc1
4. CCCCCC(=O)c1ccc2c3c(sc2c1)-c1ccccc1P3(=O)c1ccccc1 (centres undefined)
5. N#Cc1cc(/C=C/c2ccc(N(c3ccccc3)c3ccccc3)cc2)ccc1/C=C/c1ccc(/C=C/c2ccc(N(c3ccccc3)c3ccccc3)cc2)cc1C#N
6. Cc1cc(C)n2c1C=C1c3ccccc3C(c3[nH]c4ccccc4c3C)=[N+]1[B-]2(F)F
7. C1=Cc2ccc(N(c3ccccc3)c3ccccc3)cc2Cc2cc(N(c3ccccc3)c3ccccc3)ccc21

633
417
426
428
614
631
440

Quick request: emission maximum for each listed item, please.
1. COc1ccccc1C1=[N+]2C(=C(c3ccccc3)c3c4ccccc4c(-c4ccccc4OC)n3[B-]2(F)F)c2ccccc21
2. N#Cc1ccc(/C2=C3N=C(C(c4ccccc4)=C/3c3ccccc3)/C(c3ccc(C#N)cc3)=c3\[nH]/c(c(-c4ccccc4)c3-c3ccccc3)=C(/c3ccc(C#N)cc3)C3=N/C(=C(/c4ccc(C#N)cc4)c4[nH]c2c(-c2ccccc2)c4-c2ccccc2)C(c2ccccc2)=C3c2ccccc2)cc1
3. CCC1=C(C)C2=Cc3c4ccccc4c4n3[B-](C)(Oc3ccccc3-4)[N+]2=C1C (centres undefined)
4. Cc1cc(C)c(B(c2c(C)cc(C)cc2C)N2c3ccccc3C3(c4ccccc4-c4ccccc43)c3ccccc32)c(C)c1

[652, 725, 635, 560]
